# Tested on: Table apple, type Zabergäu-Renette (C2)
# Assay Summary: Greenhouse test, cut apple branches C2 dipped in test solution, bud development stage
# Type: in vivo, Malus domestica
# Design: key: Stage 0: Buds unchanged; Stage 1: Buds slightly swollen, first green tips visible; Stage 2: strongly swollen, green buds; Stage 3: Buds before breaking open, leaf or flower root already visible; Stage 4: Flower buds fully developed, but still closed, white petals already visible. In the case of the grapevine, stage 4 was the unfolding of the first leaves; Stage 5: Flowers fully open or, in the case of grapevine, unfolding of the flower roots (“Gescheine”) on the fully leafed sprouts
# Cond: T3 (21 d)
Readout: Bud development stage, apple branches C2

[
  {
    "Compound": "Cc1ccc(C(=O)NC#N)cc1.[Na] [Example A-13, Sodium-4-methyl-benzoyl-cyanamide]",
    "Assay System": "Table apple, type Zabergäu-Renette (C2)",
    "Quantitative Result": 1
  },
  {
    "Compound": "CCC(=O)NC#N.[Na] [Example A-5, Sodium propionyl cyanamide]",
    "Assay System": "Table apple, type Zabergäu-Renette (C2)",
    "Quantitative Result": 0
  },
  {
    "Compound": "N#CNC=O.[Na] [Example A-2, Sodium Formylcyanamide]",
    "Assay System": "Table apple, type Zabergäu-Renette (C2)",
    "Quantitative Result": 1
  },
  {
    "Compound": "N#CNC(=O)c1ccccc1.[Na] [Example A-4, Sodium benzoyl cyanamide]",
    "Assay System": "Table apple, type Zabergäu-Renette (C2)",
    "Quantitative Result": 0
  },
  {
    "Compound": "CCCCCCCCCCCC(=O)NC#N.[Na] [Example A-10, Sodium dodecanoyl cyanamide]",
    "Assay System": "Table apple, type Zabergäu-Renette (C2)",
    "Quantitative Result": 0
  },
  {
    "Compound": "N#CNC(=O)Cc1ccccc1.[Na] [Example A-12, Sodium phenylacetyl cyanamide]",
    "Assay System": "Table apple, type Zabergäu-Renette (C2)",
    "Quantitative Result": 3
  },
  {
    "Compound": "CC(C)(C)C(=O)NC#N.[Na] [Example A-8, Sodium pivaloyl cyanamide]",
    "Assay System": "Table apple, type Zabergäu-Renette (C2)",
    "Quantitative Result": 0
  },
  {
    "Compound": "CCCCCC(=O)NC#N.[Na] [Example A-9, Sodium hexanoyl cyanamide]",
    "Assay System": "Table apple, type Zabergäu-Renette (C2)",
    "Quantitative Result": 4
  },
  {
    "Compound": "CCCC(=O)NC#N.[Na] [Example A-6, Sodium butyryl cyanamide]",
    "Assay System": "Table apple, type Zabergäu-Renette (C2)",
    "Quantitative Result": 1
  },
  {
    "Compound": "N#CNC(=O)CCC(=O)NC#N.[Na].[Na] [Example A-14]",
    "Assay System": "Table apple, type Zabergäu-Renette (C2)",
    "Quantitative Result": 0
  },
  {
    "Compound": "N#CN [cyanamide]",
    "Assay System": "Table apple, type Zabergäu-Renette (C2)",
    "Quantitative Result": 3
  },
  {
    "Compound": "N#CNC(=O)CCCCC(=O)NC#N.[Na].[Na] [Example A-15]",
    "Assay System": "Table apple, type Zabergäu-Renette (C2)",
    "Quantitative Result": 1
  },
  {
    "Compound": "COC(=O)NC#N.[Na] [Example A-3, Sodium methoxy carbonyl cyanamide]",
    "Assay System": "Table apple, type Zabergäu-Renette (C2)",
    "Quantitative Result": 0
  },
  {
    "Compound": "CC(C)C(=O)NC#N.[Na] [Example A-7, Sodium isobutyryl cyanamide]",
    "Assay System": "Table apple, type Zabergäu-Renette (C2)",
    "Quantitative Result": 1
  },
  {
    "Compound": "CC(=O)NC#N.[Na] [Example A-1, Sodium Acetylcyanamide]",
    "Assay System": "Table apple, type Zabergäu-Renette (C2)",
    "Quantitative Result": 1
  }
]
